Target: GOBP2 (Conogethes punctiferalis, UniProt A0A146JYY2)
Sequence (A0A146JYY2 entry or part of it): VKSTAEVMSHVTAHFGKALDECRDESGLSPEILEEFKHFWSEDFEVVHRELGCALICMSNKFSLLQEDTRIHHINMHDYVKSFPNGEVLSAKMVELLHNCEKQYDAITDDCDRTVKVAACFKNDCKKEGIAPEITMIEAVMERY
Test: Fluorescence competitive binding assay with 1-NPN, recombinant GOBP2
Quick reference: Kd of the listed items.
Lab book: enter the figure in µM, no units written.

Kd for CC1=CCC2CC1C2(C)C (stereo not shown) ? 28.1

Also check c1ccc(Nc2cccc3ccccc23)cc1 [1-NPN, N-phenyl-1-naphthylamine, reference compound] 0.7

Now give it for CC/C=C\CCO [Cis-3-hexen-1-ol] too. 21.2

Next entry: O=Cc1ccccc1 31.9

// same read-out, input: C=CC(C)(O)CCC=C(C)C (stereo not shown) 18.5

Could you do the same for C=C1CCC2CC1C2(C)C (stereo not shown) , please? 13.9

Here is the next molecule: CCCCCCCCCCCCCCO 22.3
